# assayed system: A. baumannii wild-type PBP3
# test: Acylation rate constant (kinact/Ki), fluorescence anisotropy competition with BOCILLIN
# run parameters: Wildtype PBP3; average ± SD
Measured k inact/K i by item

Here is how some compounds turned out for k inact/K i.
1) CC1(C)[C@H](C(=O)O)N2C(=O)C[C@H]2S1(=O)=O | 15 ± 3 ([10]) M^-1s^-1
2) C[C@H]1[C@H](NC(=O)/C(=N\OC(C)(C)C(=O)O)c2csc(N)n2)C(=O)N1S(=O)(=O)O | 700 ± 100 ([10]) M^-1s^-1
3) C[C@@H](O)[C@H]1C(=O)N2C(C(=O)O)=C(SCCN=CN)C[C@H]12 | 450 ± 60 ([10]) M^-1s^-1

Could you now look at the following compound, please?
Data request: Could you tell me which k inact/K i is on file for C[C@@H](O)[C@H]1C(=O)N2C(C(=O)O)=C(S[C@@H]3CN[C@H](C(=O)N(C)C)C3)[C@H](C)[C@H]12 ?
Data returned: 5,000 ± 1,000 ([10]) M^-1s^-1

* * *

# Test system: A. baumannii clinical isolates
# test: microbe, parasite or virus in culture
# Assay type: cell-based
# run parameters: Acinetobacter baumannii, isolate ARC6809 (IHMA 1699528), Guatemala, RTI, 2017, read-out: MIC
# Description: The following report describes the genomic analysis of these isolates for likely resistance mechanisms. Biochemical analysis of purified PBP3 and phenotypic analyses of both clinical and isogenic strains were also conducted to determine the relative impact of key resistance determinants to SUL-DUR antibacterial activity. […]
Recorded MIC, one value per entry.

Below, each entry is followed by its recorded MIC result.
1. CC1(C)[C@H](C(=O)O)N2C(=O)C[C@H]2S1(=O)=O | > 64 µg/mL
2. C[C@@H](O)[C@H]1C(=O)N2C(C(=O)O)=C(SCCN=CN)C[C@H]12 | > 64 µg/mL
3. CN(C)c1cc(NC(=O)CNC(C)(C)C)c(O)c2c1C[C@H]1C[C@H]3[C@H](N(C)C)C(O)=C(C(N)=O)C(=O)[C@@]3(O)C(O)=C1C2=O | 0.5 µg/mL

// below: MIC requested for another compound
Data request: Give recorded MIC with A. baumannii clinical isolates for the following compound: C[C@@H](O)[C@H]1C(=O)N2C(C(=O)O)=C(S[C@@H]3CN[C@H](C(=O)N(C)C)C3)[C@H](C)[C@H]12
Data returned: > 64 µg/mL

* * *

The following molecules are listed with their measured MIC values.
# Tested on: A. baumannii clinical isolates
# test: microbe, parasite or virus in culture
# Assay type: cell-based
# run parameters: Acinetobacter baumannii, isolate ARC6814 (IHMA 1699512), Guatemala, RTI, 2017, read-out: MIC

Solved entries:
1) C[C@@H](O)[C@H]1C(=O)N2C(C(=O)O)=C(SCCN=CN)C[C@H]12 | > 64 µg/mL
2) CN(C)c1cc(NC(=O)CNC(C)(C)C)c(O)c2c1C[C@H]1C[C@H]3[C@H](N(C)C)C(O)=C(C(N)=O)C(=O)[C@@]3(O)C(O)=C1C2=O | 1 µg/mL

Data request: Return reported MIC; argument: C[C@@H](O)[C@H]1C(=O)N2C(C(=O)O)=C(S[C@@H]3CN[C@H](C(=O)N(C)C)C3)[C@H](C)[C@H]12
Data returned: > 64 µg/mL

Data request: Which MIC value is on record for CC1(C)[C@H](C(=O)O)N2C(=O)C[C@H]2S1(=O)=O ?
Data returned: > 64 µg/mL

FYI, the data here is from paper PMC10648852.
